test-system: human GcgR (Homo sapiens, UniProt P47871)
Sequence (P47871 26-477): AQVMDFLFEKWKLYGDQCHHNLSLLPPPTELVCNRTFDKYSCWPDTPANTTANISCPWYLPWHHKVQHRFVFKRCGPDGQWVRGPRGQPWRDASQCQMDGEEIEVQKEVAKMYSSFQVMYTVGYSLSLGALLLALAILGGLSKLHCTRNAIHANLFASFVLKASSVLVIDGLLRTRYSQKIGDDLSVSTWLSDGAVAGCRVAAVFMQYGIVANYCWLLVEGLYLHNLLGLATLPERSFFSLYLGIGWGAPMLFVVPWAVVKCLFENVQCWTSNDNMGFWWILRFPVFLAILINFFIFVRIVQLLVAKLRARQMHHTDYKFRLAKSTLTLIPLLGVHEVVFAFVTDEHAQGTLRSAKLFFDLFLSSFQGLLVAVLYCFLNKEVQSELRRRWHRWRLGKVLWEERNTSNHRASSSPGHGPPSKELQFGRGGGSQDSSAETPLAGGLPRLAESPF
test: Functional cAMP activity in the presence of 1% HSA
Assay type: cell-based
assay-setup: read-out: cAMP Rel EC50, hGcgR
Starred links: 1 amine or outer side, 2 acyl side, 3 side chain; linkers in the order of their positions; H or OH if unused. Non-standard residues stand in square brackets, D forms with d. Groups on a side chain read outwards from the residue. No end group written: not given here. *: point of attachment. C18 diacid = O=C(O)CCCCCCCCCCCCCCCCC(=O)*; αMePhe(2-F) = C[C@](N)(Cc1ccccc1F)C(=O)O; γGlu = O=C(O)[C@H](CCC(=O)[*:2])N[*:1]; αMe4Pal = C[C@](N)(Cc1ccncc1)C(=O)O; αMeY = C[C@](N)(Cc1ccc(O)cc1)C(=O)O; 4Pal = N[C@@H](Cc1ccncc1)C(=O)O; αMeL = CC(C)C[C@](C)(N)C(=O)O; αMeS = C[C@](N)(CO)C(=O)O; Orn = NCCC[C@H](N)C(=O)O; AEEA = NCCOCCOCC(=O)O; Aib = CC(C)(N)C(=O)O
# Yes = EC50 below 300 nM (exclusive); No = EC50 at/above 300 nM

Y[Aib]QGTFTSD[4Pal]SQ[αMeL]LD[Orn]K([dE-γGlu-C18 diacid])AQ[αMe4Pal]QFIE[αMeY]LIA[Aib]GPSSGEPPPSGSEE-NH2 [Example 1106]; No
H-Y[Aib]Q[dA]T[αMePhe(2-F)]TSD[4Pal][αMeS]I[αMeL]LD[Orn]K([AEEA-γGlu-C18 diacid])AQ[αMe4Pal]EFI[dE][αMeY]LIEGGPSSGEPPPSGTGE-NH2 [Example 766]; Yes
H-Y[Aib]QGT[αMePhe(2-F)]TSD[4Pal][αMeS]I[αMeL]LD[Orn]K([γGlu-γGlu-C18 diacid])AQ[Aib][Orn]FI[dE][αMeY]LSEGGPSSGEPPPSGTGE-NH2 [Example 518]; Yes

// query Identify whether the substance H-Y[Aib]QGTFTSD[4Pal]S[Orn][αMeL]LDKK([AEEA-γGlu-γGlu-C18 diacid])AQ[αMe4Pal]AFIEYLIE[Aib]GPSSGAPPPSGS-NH2 [Example 867] records EC50 below 300 nM.
// result Yes

// query Say whether its EC50 is strictly beneath 300 nM. Entry: H-Y[Aib]QGTFTSDFSK[αMeL]LDKK([γGlu-γGlu-C18 diacid])AQ[Aib]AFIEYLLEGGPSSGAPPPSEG-NH2 [Example 58]
// result Yes

Cited source for all entries: patent US20240270821A1
